Notes on IC50 obtained with Human PDGFRβ, cytoplasmic domain (GST-PDGFRβ) (Homo sapiens, UniProt P09619).
Sequence (P09619 with tags, fused parts or gaps): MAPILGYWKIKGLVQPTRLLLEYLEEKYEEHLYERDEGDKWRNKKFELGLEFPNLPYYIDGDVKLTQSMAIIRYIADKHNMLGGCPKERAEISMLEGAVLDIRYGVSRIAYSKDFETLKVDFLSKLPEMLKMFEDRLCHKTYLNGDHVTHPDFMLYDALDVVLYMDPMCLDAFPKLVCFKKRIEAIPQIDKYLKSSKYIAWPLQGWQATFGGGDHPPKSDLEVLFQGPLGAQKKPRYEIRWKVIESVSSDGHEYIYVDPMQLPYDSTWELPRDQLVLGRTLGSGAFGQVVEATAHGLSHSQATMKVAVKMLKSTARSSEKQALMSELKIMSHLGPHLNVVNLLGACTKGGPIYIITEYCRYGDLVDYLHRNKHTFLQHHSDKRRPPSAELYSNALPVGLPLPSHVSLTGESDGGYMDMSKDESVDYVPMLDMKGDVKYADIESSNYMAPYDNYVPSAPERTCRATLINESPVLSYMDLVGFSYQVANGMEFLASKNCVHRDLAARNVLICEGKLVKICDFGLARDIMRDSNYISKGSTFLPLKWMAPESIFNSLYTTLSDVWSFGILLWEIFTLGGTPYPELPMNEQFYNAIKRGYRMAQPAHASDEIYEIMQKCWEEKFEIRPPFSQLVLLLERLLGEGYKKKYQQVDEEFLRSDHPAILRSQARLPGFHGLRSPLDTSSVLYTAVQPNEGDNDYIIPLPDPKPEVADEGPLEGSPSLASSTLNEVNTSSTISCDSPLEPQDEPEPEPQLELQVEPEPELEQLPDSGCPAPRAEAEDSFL
VALUE_KIND: IC50

STRUCTURE_AS_SMILES	RESULT
Cc1cncc(C(=O)Nc2cccc([C@H](C)Nc3cnc4cn(CC(C)C)nc4n3)c2)c1	0.3 to 1 µM
CCn1cc2ncc(N[C@@H](C)c3cccc(NC(=O)c4ccc(OC(F)(F)F)c(C)c4)c3)nc2n1	< 0.3 µM
CCn1cc2ncc(N[C@@H](C)c3cccc(NC(=O)c4ccc(NC(C)C)nc4)c3)nc2n1	0.3 to 1 µM
CCn1cc2ncc(N[C@@H](C)c3cccc(NC(=O)c4ccc(N(C)C)nc4)c3)nc2n1	0.3 to 1 µM
